- test: Lipophilicity, log D of the compound at pH 7.4
- measurement-context: buffer
measure-name: logD

N#Cc1ccc(CN2CCN(c3ccc4nnc(C(F)(F)F)n4n3)CC2)cc1 = 2.9
Fc1ccc(CN2CCN(C3=Nn4c(nnc4C(F)(F)F)CC3)CC2)cc1 = 2.8
CC(=O)N1CCN(CCOc2ccc(C3(O)CCN(c4ccc5nnc(C(F)(F)F)n5n4)CC3)cc2)CC1 = 2.2
CC(=O)N1CCN(CCOc2ccc(C3CCN(C4=Nn5c(nnc5C(F)(F)F)CC4)CC3)cc2)CC1 = 2.5
OC1(c2cccnc2)CCN(c2ccc3nnc(C(F)(F)F)n3n2)CC1 = 2.1

---

Below are molecules with their IC50 as measured on Voltage-gated inwardly rectifying potassium channel KCNH2 (Homo sapiens).
Sequence (Q12809 whole entry): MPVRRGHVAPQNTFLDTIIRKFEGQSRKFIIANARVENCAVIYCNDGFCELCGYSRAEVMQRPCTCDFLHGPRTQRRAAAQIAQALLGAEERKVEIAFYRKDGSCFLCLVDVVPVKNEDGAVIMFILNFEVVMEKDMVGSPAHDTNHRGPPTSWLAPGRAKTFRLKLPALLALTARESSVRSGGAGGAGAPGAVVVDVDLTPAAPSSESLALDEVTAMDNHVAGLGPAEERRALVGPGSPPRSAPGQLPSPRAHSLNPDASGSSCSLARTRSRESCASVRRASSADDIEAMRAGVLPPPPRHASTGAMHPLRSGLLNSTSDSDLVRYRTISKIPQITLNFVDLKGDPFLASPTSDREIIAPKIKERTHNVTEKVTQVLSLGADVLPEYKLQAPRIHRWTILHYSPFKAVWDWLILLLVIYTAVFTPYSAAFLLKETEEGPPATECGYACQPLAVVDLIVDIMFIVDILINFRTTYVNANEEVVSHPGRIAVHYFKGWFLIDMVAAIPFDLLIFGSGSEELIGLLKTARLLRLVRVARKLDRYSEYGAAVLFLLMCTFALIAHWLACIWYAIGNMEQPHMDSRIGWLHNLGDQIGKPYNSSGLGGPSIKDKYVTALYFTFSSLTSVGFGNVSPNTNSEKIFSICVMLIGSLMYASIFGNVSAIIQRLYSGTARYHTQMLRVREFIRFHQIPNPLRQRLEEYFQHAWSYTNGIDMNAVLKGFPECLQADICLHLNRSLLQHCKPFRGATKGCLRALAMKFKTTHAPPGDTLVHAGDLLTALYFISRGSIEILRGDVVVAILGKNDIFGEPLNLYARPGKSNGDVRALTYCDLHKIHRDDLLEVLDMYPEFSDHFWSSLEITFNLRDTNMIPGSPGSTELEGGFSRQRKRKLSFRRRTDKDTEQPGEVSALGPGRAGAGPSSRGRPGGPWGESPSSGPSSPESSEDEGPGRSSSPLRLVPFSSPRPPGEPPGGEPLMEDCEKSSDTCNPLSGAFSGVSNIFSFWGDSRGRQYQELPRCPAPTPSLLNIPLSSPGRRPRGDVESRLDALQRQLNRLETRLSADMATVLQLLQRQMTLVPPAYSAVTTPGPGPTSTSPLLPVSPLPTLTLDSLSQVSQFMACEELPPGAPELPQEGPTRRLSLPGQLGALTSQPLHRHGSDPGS
measure-name: IC50

Fc1cccc(CN2CCN(c3ccc4nnc(C(F)(F)F)n4n3)CC2)c1F = > 100 µM
CC(=O)N1CCN(CCOc2ccc(C3CCN(C4=Nn5c(nnc5C(F)(F)F)CC4)CC3)cc2)CC1 = > 100 µM
CC(=O)N1CCN(CCOc2ccc(C3(O)CCN(c4ccc5nnc(C(F)(F)F)n5n4)CC3)cc2)CC1 = > 100 µM

Data origin, for the record: ChEMBL document CHEMBL2346572
